Tested on: BMDM
assayInfo: Cytotoxicity against C57/BL6 mouse bone marrow macrophage cells assessed as reduction in cell viability at 10 uM incubated for 3 days by CCK8 assay
Format: toxicity, cell-based
setupConditions: 72 h, time 3 day
Please provide measured Cell viability for the entries that follow.

// fetch BMDM Cell viability for `Cc1cccc(C)c1NC(=O)c1cc2c([nH]c3ccccc32)c(CNc2ccccc2)n1` 67.6%

// fetch BMDM Cell viability for `Cc1cccc(C)c1NC(=O)c1cc2c([nH]c3ccccc32)c(CCc2ccncc2)n1` > 100%

// fetch BMDM Cell viability for `CC(=O)Nc1ccc(CCc2nc(C(=O)Nc3c(C)cccc3C)cc3c2[nH]c2ccccc23)cc1` > 100%

// fetch BMDM Cell viability for `Cc1cccc(C)c1NC(=O)c1cc2c([nH]c3ccccc32)c(CCc2nccs2)n1` 71%

// fetch BMDM Cell viability for `Cc1cccc(C)c1NC(=O)c1cc2c([nH]c3ccccc32)c(CCc2ccc(C(=O)O)cc2)n1` > 100%

// fetch BMDM Cell viability for `O=C(Nc1ccncc1)c1cc2c([nH]c3ccccc32)c(CCc2ccccc2)n1` > 100%

// fetch BMDM Cell viability for `O=C(NC1CC1)c1cc2c([nH]c3ccccc32)c(CCc2ccccc2)n1` > 100%

// fetch BMDM Cell viability for `COc1cccc(CCc2nc(C(=O)Nc3c(C)cccc3C)cc3c2[nH]c2ccccc23)c1` > 100%

// fetch BMDM Cell viability for `Cc1cccc(C)c1NC(=O)c1cc2c([nH]c3ccccc32)c(CCc2ccc(C#N)cc2)n1` > 100%

// fetch BMDM Cell viability for `Cc1cccc(C)c1NC(=O)c1cc2c([nH]c3ccccc32)c(CCc2cc(F)cc(F)c2)n1` > 100%

// fetch BMDM Cell viability for `Cc1cccc(C)c1NC(=O)c1cc2c([nH]c3ccccc32)c(CCc2ccc(Cl)cc2)n1` > 100%

// fetch BMDM Cell viability for `Cc1cccc(C)c1NC(=O)c1cc2c([nH]c3ccccc32)c(CCc2ccc(P(C)(C)=O)cc2)n1` > 100%

// fetch BMDM Cell viability for `O=C(c1cc2c([nH]c3ccccc32)c(CCc2ccccc2)n1)N1CCOCC1` > 100%

// fetch BMDM Cell viability for `Cc1cccc(C)c1NC(=O)c1cc2c([nH]c3ccccc32)c(CCc2ncc[nH]2)n1` > 100%

// fetch BMDM Cell viability for `Cc1cccc(C)c1NC(=O)c1cc2c([nH]c3ccccc32)c(CCc2ccc(F)cc2)n1` > 100%

// fetch BMDM Cell viability for `O=C(NCc1ccccc1)c1cc2c([nH]c3ccccc32)c(CCc2ccccc2)n1` > 100%

// fetch BMDM Cell viability for `O=C(NC1CCOCC1)c1cc2c([nH]c3ccccc32)c(CCc2ccccc2)n1` > 100%

// fetch BMDM Cell viability for `COc1ccc(CCc2nc(C(=O)Nc3c(C)cccc3C)cc3c2[nH]c2ccccc23)cc1` > 100%

// fetch BMDM Cell viability for `Cc1cc2occ(CN(C)CCN(C)Cc3cn(-c4cccc(C(F)(F)F)c4)c4ccccc34)c(=O)c2cc1C` 3.8%
